test: ATG_M_19_TRANS: Attagene TRANS-FACTORIAL HepG2 Assay for M19 Transcription Factor (Internal Marker) (AID 2282974); conditions: HepG2 Attagene TRANS-FACTORIAL M19 internal marker reporter
Inconclusive results are not listed. Active and inactive are the calls of the source. The calls were made as follows: active = hit-call score of the fitted dose curve at least 0.9, where 1 is the maximum; inconclusive = response in the unintended direction; inactive = score below 0.9.
attributeMeasured: outcome

Oc1cc2ccccc2cc1O ... inactive
CCC(=O)O ... inactive
C[C@]12CC[C@@H]3c4ccc(O)cc4CC[C@H]3[C@@H]1C[C@@H](O)[C@@H]2O ... inactive
CCCCC(CC)C(=O)OCCOCCOCCOCCOC(=O)C(CC)CCCC (stereo not drawn) ... inactive
Cc1ccc(N=Nc2c(O)ccc3ccccc23)c(C)c1 ... inactive
FC(F)=C(F)C(F)(F)C(F)(F)C(F)(F)C(F)F ... inactive
CCCCCCCCCCCCCC[n+]1ccccc1 ... inactive
O=C(NO)c1ccccc1 ... inactive
CCO[Si](C)(C)OCC ... inactive
CCCCCCCCCCCCCCC ... inactive

Q: Entry CCN(CCC#N)c1ccccc1 : reported outcome = ?
Ans: inactive

Q: Entry CCOC(C)=O : reported outcome = ?
Ans: inactive

###

read-out: Thrombomodulin, THBD (gene 7056); test: BSK_CASM3C_Thrombomodulin: BioMAP Diversity Plus: CASM3C Assay for Thrombomodulin Biomarker Activity (AID 2283051); conditions: primary human coronary artery smooth muscle cells; actives raise or lower the signal;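 also: thrombomodulin protein level measured by ELISA 24 h after dosing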
Calls of active or inactive are those of the source. The calls were made as follows: active = hit-call score of the fitted dose curve at least 0.9, where 1 is the maximum; inactive = score below 0.9.
Your answer must be one of the following: active, inactive

Q: // param item: CCCCC(CC)C(=O)O (configuration not stated) ; yields the recorded call
Ans: inactive

Q: // param item: CN(C)CCOC(c1ccccc1)c1ccccc1 ; yields the recorded call
Ans: inactive

Q: // param item: O=C1c2ccc(O)c(O)c2C(=O)c2c(O)ccc(O)c21 ; yields the recorded call
Ans: inactive

Q: // param item: O=C(c1ccccc1)c1ccccc1 ; yields the recorded call
Ans: inactive

Q: // param item: COCN(COC)c1nc(N(COC)COC)nc(N(COC)COC)n1 ; yields the recorded call
Ans: inactive

Q: // param item: COC1=CC(=O)C[C@@H](C)[C@]12Oc1c(Cl)c(OC)cc(OC)c1C2=O ; yields the recorded call
Ans: inactive

Q: // param item: O=P(O)(O)CCC(F)(F)C(F)(F)C(F)(F)C(F)(F)C(F)(F)C(F)(F)C(F)(F)C(F)(F)F ; yields the recorded call
Ans: inactive

Q: // param item: CN(CCO)S(=O)(=O)C(F)(F)C(F)(F)C(F)(F)C(F)(F)C(F)(F)C(F)(F)C(F)(F)C(F)(F)F ; yields the recorded call
Ans: inactive

Q: // param item: C=CC(=O)OCCC(F)(F)C(F)(F)C(F)(F)C(F)(F)C(F)(F)C(F)(F)C(F)(F)C(F)(F)F ; yields the recorded call
Ans: inactive

Q: // param item: O=C(NCc1ncc(C(F)(F)F)cc1Cl)c1c(Cl)cccc1Cl ; yields the recorded call
Ans: inactive

Q: // param item: O=C1NS(=O)(=O)c2ccccc21 ; yields the recorded call
Ans: inactive

Q: // param item: Cc1ccc(C(=O)c2ccccc2)cc1 ; yields the recorded call
Ans: inactive

Q: // param item: CCCCC(CC)C(=O)OCCOCCOCCOCCOC(=O)C(CC)CCCC (configuration not stated) ; yields the recorded call
Ans: inactive

Q: // param item: O=P(O)(O)CCC(F)(F)C(F)(F)C(F)(F)C(F)(F)C(F)(F)C(F)(F)F ; yields the recorded call
Ans: inactive

Q: // param item: CCCCc1oc2ccccc2c1C(=O)c1cc(I)c(OCCN(CC)CC)c(I)c1 ; yields the recorded call
Ans: active

Q: // param item: O=C(NO)c1ccccc1 ; yields the recorded call
Ans: inactive

Q: // param item: CC[N+](CC)(CC)Cc1ccccc1 ; yields the recorded call
Ans: inactive
